# TARGET_OF_ASSAY: human IgG (human)
# ASSAY_OVERVIEW: SPR, synthetic peptide
hey, just use true (1) if measured Kd is less than 0.1 µM, otherwise false (0)

| BINDER | GROUP |
| --- | --- |
| GPRCAYHRGELVWCSFH [C35A (D3R, T15S)] | true (1) |
| DCTYTLGNLVWCT [GFc-C35-3/15 (N8L)] | false (0) |
| DCTWHRGNLVWCT [GFc-C35-3/15 (T7H, N8R, Y6W)] | false (0) |
| DCTYTNGDLVWCT [GFc-C35-3/15 (N10D)] | false (0) |
| GPDCAYHRGELVWCTFH [C35A] | true (1) |
| DCTYTNGQLVWCT [GFc-C35-3/15 (N10Q)] | false (0) |
| RCAYHRGELVWCS [GFc-C35-3/15 (D3R, T5A, T7H, N8R, N10E, T15S)] | false (0) |
| DCTYTNGNLVWCT [GFc-C35-3/15] | false (0) |

Data provenance: patent US20140274790A1
